src = the OPERA property sets (Mansouri et al. 2018)

Listing of recorded logP by entry.
Where a SMILES comes first, the peptide text is derived from it.

>>> reading("CCC1CC(C(=O)NC(C(C)O)C2OC(SC)C(O)C(O)C2O)N(C)C1 (configuration not stated)")
-0.4
>>> reading("C#CCOc1c(Cl)cc(NC=NOCCC)cc1Cl")
4
>>> reading("Cc1cccc(OC(C)C(=O)NNC(C)C)c1 (configuration not stated)")
1.88
>>> reading("CC(=O)NC(CC(C)C)C(=O)NC(CCCCN)C(=O)NC(Cc1ccccc1)C(N)=O (stereo not drawn) (Ac-Leu-Lys-Phe-NH2; configuration not given here)")
1.14
>>> reading("CCCCN(C)N=Nc1ccccc1C(N)=O")
3.52

Problem: Which logP value is on record for CC1CC2C3CCC4=CC(=O)C=CC4(C)C3(F)C(O)CC2(C)C1(O)C(N)=O (configuration not stated) ?
Solution: 1.41

Problem: Moving on to `CCCCOC(=O)n1cc(F)c(=O)[nH]c1=O`
Solution: 0.89

Problem: Moving on to `Cc1nc(Br)c([N+](=O)[O-])n1C`
Solution: 0.87

Problem: Moving on to C#CCOc1c(Cl)cc(NC=NOC(C)CC)cc1Cl (configuration not stated)
Solution: 4.2

Problem: Moving on to CC(=O)NC(CCCCN)C(=O)NC(Cc1ccccc1)C(=O)NC(CC(C)C)C(N)=O (stereo not drawn) (Ac-Lys-Phe-Leu-NH2; configuration not given here)
Solution: 0.98

Problem: Moving on to ClC1CC(Cl)C(Cl)CC1Cl (configuration not stated)
Solution: 2.82

Problem: Moving on to `CCN1C(=O)C(=O)c2cccc(OC)c2C1=O`
Solution: 0.94

Problem: Moving on to `Cc1nc2sccn2c(=O)c1CCN1CCC(=C(c2ccc(F)cc2)c2ccc(F)cc2)CC1`
Solution: 5.2

Problem: Moving on to CCC1COC(Cn2cncn2)(c2ccc(C(=N)N)cc2)O1 (configuration not stated)
Solution: 0.85

Problem: Moving on to `CCN(CC)Cc1ccc(C(=O)Nc2ccccc2C)cc1`
Solution: 3.31

Problem: Moving on to Nc1ncnc2c1ncn2C1OC(CO)CC1O (configuration not stated)
Solution: -0.61

Problem: Moving on to `Clc1ccc(-c2cc(Cl)c(Cl)cc2Cl)c(Cl)c1`
Solution: 7.21

Problem: Moving on to `Cc1nnc[nH]1`
Solution: -0.55
